# System: NCI-H460 lung
Possible outcomes: active, inactive

- O=C(Nc1ccc(Nc2ccncc2)cc1)c1ccc([N+](=O)[O-])cc1: inactive
- Cc1ccc(SC2c3ccc(C)cc3Oc3nc(N)c(C#N)c(N)c32)cc1 (stereo not given): inactive
- COc1ccc(/C=C\[N+](=O)[O-])cc1OC: inactive
- COC(=O)c1ccc2c(c1)nc(NC(=O)c1ccccc1)n2CCCc1ccccc1: inactive
- COc1ccc(Sc2[nH]c(C(C)=O)c3ccccc23)cc1: inactive
- COC(=O)COc1ccccc1/C=C1\N=C(c2ccccc2)N(c2cc(C(F)(F)F)ccc2Cl)C1=O: inactive
- CN(C)CCNC(=O)c1cccc2ccc(-c3ccc(O)cc3)nc12: inactive
- NC(=O)/C=C/C(=O)c1c(Cl)cccc1Cl: inactive
- CCN(CC)CCC(CNc1ccnc2cc(Cl)ccc12)c1ccc(Cl)cc1 (stereo not given): inactive
- Cc1cc(Cl)cc(OCCn2cc(F)cn2)c1-c1nc(N)nc2c1CN(C(=O)NCC(C)(F)F)C2: active
